Test: in vitro
Assay type: in vitro ADME
Details: human liver microsomes, 1 μM compound
quantity: half-life at 1 μM

smiles code	half-life at 1 μM
Nc1nccc(Sc2c(N)nc(N3CCC4(CC3)Cc3ccccc3[C@H]4N)n3ccnc23)c1Cl	> 1 h

Turning now to a further record.
Entry Cc1nc(N2CCC3(CC2)Cc2ccccc2[C@H]3N)n2ccnc2c1Sc1ccnc(N)c1Cl ; half-life at 1 μM = > 1 h

====

Experiment: In vivo pharmacokinetic parameters
Conditions: plasma; Beagle Dog, po, 5 mg/kg; read-out: Half-life T1/2 (converted)
quantity: half-life (min)
Just the number please, in min, no unit attached.

Memo: Cc1nc(N2CCC3(CC2)Cc2ccccc2[C@H]3N)n2ccnc2c1Sc1ccnc(N)c1Cl [Example 1] , reported half-life: 654
